Origin of the recorded values: patent US9409866B2

# system-tested: human CB2 receptors (Homo sapiens (Human))
# Sequence (P34972 whole entry): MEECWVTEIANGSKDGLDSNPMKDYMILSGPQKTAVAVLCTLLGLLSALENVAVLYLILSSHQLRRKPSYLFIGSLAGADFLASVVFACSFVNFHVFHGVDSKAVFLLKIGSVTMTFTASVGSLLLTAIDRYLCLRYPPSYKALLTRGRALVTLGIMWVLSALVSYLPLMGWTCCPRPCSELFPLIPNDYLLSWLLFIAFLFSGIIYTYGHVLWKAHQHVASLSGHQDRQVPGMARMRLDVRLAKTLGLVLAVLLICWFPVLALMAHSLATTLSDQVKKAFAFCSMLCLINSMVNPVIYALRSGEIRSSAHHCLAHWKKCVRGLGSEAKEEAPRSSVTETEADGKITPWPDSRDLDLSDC
# measurement-protocol: functional cAMP assay, CHO cells expressing human CB2
# Type: cell-based
# test-conditions: read-out: Human CB2 EC50
pEC50: −log10 of the molar value.
Listed below: pEC50 values for each entry.

{"columns": ["compound", "pEC50"],
 "data": [
  ["C[C@H](Oc1cc(C(=O)NC(C)(CC(N)=O)C2CC2)ncc1C1CC1)C(F)(F)F (stereo partly drawn) [Example 258]", 7.89],
  ["CN(C)C(=O)C(NC(=O)c1cc(OCC(F)(F)F)c(C2CC2)cn1)C(C)(C)C (stereo not drawn)", 8.47],
  ["O=C(NCC1(O)CCCC1)c1cc(OCC2CC2)c(C2CC2)cn1", 7.74],
  ["CC[C@](C)(CO)NC(=O)c1cc(OCC2CC2)c(Cl)cn1", 7.72],
  ["C[C@H](Oc1cc(C(=O)NC2(CC(N)=O)COC2)ncc1C1CC1)C(F)(F)F", 6.29],
  ["Cc1nc(C(C)(CN2CC(F)(F)C2)NC(=O)c2cc(OCC(F)(F)F)c(C3CC3)cn2)no1 (stereo not drawn)", 7.19],
  ["CCC(C)(NC(=O)c1cc(OCC(F)(F)F)c(C2CC2)cn1)C(N)=O (stereo not drawn)", 6.86],
  ["CC(CF)Oc1cc(C(=O)NC(C)(CC(N)=O)C2CC2)ncc1C1CC1 (stereo not drawn) [Example 293]", 8.89],
  ["Cc1nc(C(C)(CC2CC2)NC(=O)c2cc(OCC(F)(F)F)c(N3CC(F)(F)C3)cn2)no1 (stereo not drawn)", 7.75],
  ["CC(CC(N)=O)(NC(=O)c1cc(OCC(F)(F)F)c(C2(F)CCC2)cn1)C1CC1 (stereo not drawn)", 8.17],
  ["CNC(=O)C(NC(=O)c1cc(O[C@@H](C)C(F)(F)F)c(C2CC2)cn1)C(C)(C)O (stereo partly drawn) [Example 253]", 8.72],
  ["Cc1nc(C(C)(CC2CC2)NC(=O)c2cc(O[C@@H](C)C(F)(F)F)c(C3CC3)cn2)no1 (stereo partly drawn) [Example 101]", 9.15],
  ["Cc1nc(C(C)(CS(C)(=O)=O)NC(=O)c2cc(O[C@@H](C)C(F)(F)F)c(C3(F)CCC3)cn2)no1 (stereo partly drawn) [Example 130]", 7.63],
  ["Cc1nnc(C(NC(=O)c2cc(O[C@@H](C)C(F)(F)F)c(C3(F)COC3)cn2)C(C)(C)C)o1 (stereo partly drawn)", 7.02],
  ["Cc1nc(C(NC(=O)c2cc(O[C@@H](C)C(F)(F)F)c(C3CC3)cn2)C(C)(C)C)no1 (stereo partly drawn) [Example 214]", 8.10],
  ["Cc1nc(C(C)(CS(C)(=O)=O)NC(=O)c2cc(O[C@@H](C)C(F)(F)F)c(C3CCC3)cn2)no1 (stereo partly drawn) [Example 111]", 8.52],
  ["CCC(CC)(NC(=O)c1cc(OCC2(C)COC2)c(C2CC2)cn1)C(=O)NCC(F)CCl (stereo not drawn)", 6.53],
  ["CCC(CC)(CO)NC(=O)c1cc(OCC2CC2)c(Cl)cn1", 7.39],
  ["CC(C)(C)C(NC(=O)c1cc(OCC(F)(F)F)c(C2CC2)cn1)C(=O)N1CCC1 (stereo not drawn)", 8.92],
  ["CC(C)C(CCO)NC(=O)c1cc(OCC2CC2)c(Cl)cn1 (stereo not drawn)", 6.83],
  ["CNC(=O)CC(C)(NC(=O)c1cc(O[C@@H](C)C(F)(F)F)c(C2CC2)cn1)C1CC1 (stereo partly drawn) [Example 249]", 9.00],
  ["CC(CC1CC1)(NC(=O)c1cc(OCC(F)(F)F)c(C2CC2)cn1)C(N)=O (stereo not drawn)", 6.46],
  ["NC(=O)CC1(NC(=O)c2cc(OCC(F)F)c(C3(F)CCC3)cn2)CS(=O)(=O)C1", 7.14],
  ["O=C(NC(c1ccccn1)C(F)(F)F)c1cc(OCC2CC2)c(C2CC2)cn1 (stereo not drawn)", 8.17],
  ["Cn1nnnc1C(C)(CC1CC1)NC(=O)c1cc(OCC(F)(F)F)c(C2CC2)cn1 (stereo not drawn)", 7.70],
  ["CNC(=O)C(NC(=O)c1cc(OCC(F)(F)F)c(C2CC2)cn1)C(C)(C)O (stereo not drawn)", 7.29],
  ["CN(C)C(=O)CC1(NC(=O)c2cc(OCC(F)(F)F)c(Cl)cn2)COC1", 6.44],
  ["Cc1nnc(C(C)(CC2COC2)NC(=O)c2cc(OCC(F)(F)F)c(C3CC3)cn2)o1 (stereo not drawn)", 6.15],
  ["Cc1nc(C(C)(NC(=O)c2cc(OCC(F)(F)F)c(C3CC3)cn2)C2CC2)no1 (stereo not drawn)", 8.77],
  ["CC(C)C[C@H](NC(=O)c1cc(OCC2CC2)c(C2CC2)cn1)C(N)=O", 7.93],
  ["CC(C)(C)C(NC(=O)c1cc(OCC(F)(F)F)c(Cl)cn1)c1nccs1 (stereo not drawn)", 7.39],
  ["Cc1nc(C(C)(NC(=O)c2cc(O[C@@H](C)C(F)(F)F)c(C3CC3)cn2)C2CC2)no1 (single isomer, unassigned; epimer b) [Example 69]", 9.60],
  ["NC(=O)CC1(NC(=O)c2cc(OCC(F)F)c(C3CC3)cn2)CS(=O)(=O)C1", 8.00]
]}

====

Listed below: log10(EC50) values for each entry.
# system-tested: human CB2 receptors (Homo sapiens (Human))
# measurement-protocol: functional cAMP assay, CHO cells expressing human CB2
# Assay type: cell-based
# test-conditions: read-out: Human CB2 EC50
result-type: log10(EC50) (log10 of the value in nM)

{"columns": ["compound", "recorded-result"],
 "data": [
  ["Cc1nc(C(C)(NC(=O)c2cc(O[C@@H](C)C(F)(F)F)c(N3CC(F)(F)C3)cn2)C2CC2)no1 (stereo partly shown)", 0.15],
  ["CCC(O)CNC(=O)c1cc(OCC2CC2)c(C2CC2)cn1 (stereo not shown)", 1.80],
  ["CCC(CC)(NC(=O)c1cc(OCC2(C)COC2)c(C2CC2)cn1)C(=O)NCCCF", 2.66],
  ["Cc1nc(C(C)(CC2CC2)NC(=O)c2cc(OCC(F)F)c(C3CC3)cn2)no1 (stereo not shown)", 0.53],
  ["CNC(=O)CC1(NC(=O)c2cc(OCC(F)(F)F)c(N3CC(F)(F)C3)cn2)COC1", 2.96],
  ["Cc1nc(C(C)(CS(C)(=O)=O)NC(=O)c2cc(OCC(F)(F)F)c(C3(O)CCC3)cn2)no1 (stereo not shown)", 3.04],
  ["CNC(=O)[C@@H](NC(=O)c1cc(OCC(F)(F)F)c(Cl)cn1)C(C)(C)C", 0.99],
  ["CC(C)CC(C)(NC(=O)c1cc(OCC(F)(F)F)c(C2CC2)cn1)C(N)=O (stereo not shown)", 1.91],
  ["CC(C)[C@@](C)(CO)NC(=O)c1cc(OCC2CC2)c(Cl)cn1", 1.08],
  ["CC(C)(CO)CNC(=O)c1cc(OCC2CC2)c(Cl)cn1", 1.67],
  ["Cc1nc([C@@](C)(NC(=O)c2cc(O[C@@H](C)C(F)(F)F)c(C3(F)COC3)cn2)C2CC2)no1", 2.45],
  ["Cc1nnc(C(NC(=O)c2cc(OCC(F)(F)F)c(C3CC3)cn2)C2(C)COC2)o1 (stereo not shown)", 3.00],
  ["Cc1nc(C(C)(CS(C)(=O)=O)NC(=O)c2cc(OCC(F)(F)F)c(C3(F)COC3)cn2)no1 (single isomer, unassigned) [Example 132]", 2.52],
  ["O=C(N[C@@H](c1cccnc1)C(F)(F)F)c1cc(OCc2ccc(F)cc2)c(Cl)cn1", 0.70],
  ["CNC(=O)CC1(NC(=O)c2cc(OCC(F)(F)F)c(C3CC3)cn2)COC1", 2.74],
  ["CC(C)C[C@H](NC(=O)c1cc(-c2cccc(Cl)c2)c(Cl)cn1)C(N)=O", 2.67]
]}

====

# system-tested: human CB1 receptors (Homo sapiens (Human), UniProt P21554)
# Sequence (P21554 whole entry): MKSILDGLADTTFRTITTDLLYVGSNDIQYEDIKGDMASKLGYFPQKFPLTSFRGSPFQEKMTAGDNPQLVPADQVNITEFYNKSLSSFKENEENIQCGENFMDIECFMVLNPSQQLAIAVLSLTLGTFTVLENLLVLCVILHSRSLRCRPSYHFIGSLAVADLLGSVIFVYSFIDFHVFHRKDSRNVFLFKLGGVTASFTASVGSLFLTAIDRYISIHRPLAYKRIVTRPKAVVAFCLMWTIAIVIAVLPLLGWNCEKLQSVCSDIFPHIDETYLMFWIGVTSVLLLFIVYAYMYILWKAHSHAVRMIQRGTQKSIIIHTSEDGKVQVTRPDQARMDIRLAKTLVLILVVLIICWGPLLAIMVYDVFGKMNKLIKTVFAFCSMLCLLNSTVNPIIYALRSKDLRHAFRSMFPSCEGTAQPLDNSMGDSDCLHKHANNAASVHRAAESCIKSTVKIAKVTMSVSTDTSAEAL
# measurement-protocol: functional cAMP assay, CHO cells expressing human CB1
# Format: cell-based
# test-conditions: Human CB1 EC50 (uM), functional cAMP assay, CHO cells expressing human CB1
Listed below: EC50 values for each entry.

{"columns": ["compound", "censoring-operator", "EC50 [µM]"],
 "data": [
  ["CC(CC(N)=O)(NC(=O)c1cc(OCC(F)(F)F)c(C2(F)CCC2)cn1)C1CC1 (single isomer, unassigned) [Example 309]", "=", 0.475],
  ["Cc1nc([C@](C)(CC2CC2)NC(=O)c2cc(OCC(F)(F)F)c(C3CC3)cn2)no1 (single isomer, unassigned; enantiomer b)", "=", 5.28],
  ["Cc1nc(C(C)(NC(=O)c2cc(OCC(F)(F)F)c(C3(F)CCC3)cn2)C2CC2)no1 (single isomer, unassigned) [Example 306]", ">", 10],
  ["CC(CC(N)=O)(NC(=O)c1cc(OCC(F)(F)F)c(C2CC2)cn1)C1CC1 (single isomer, unassigned)", ">", 10],
  ["Cc1nc([C@](C)(NC(=O)c2cc(OCC(F)(F)F)c(Cl)cn2)C2CC2)no1 (single isomer, unassigned; enantiomer a)", ">", 10],
  ["Cc1nc(C(C)(NC(=O)c2cc(OCC(F)(F)F)c(C3(F)CCC3)cn2)C2CC2)no1 (single isomer, unassigned) [Example 307]", "=", 0.032]
]}
